Value source: patent US12215106B2

Procedure text: Plasma pharmacokinetics and brain distribution after single IV, IP and oral administration
Type: in vivo
Particulars: male, C57BL/6, mouse, in vivo, ip, 10 mg/kg, Plasma concentration, individual animal
Counter-ions that a name gives are not always drawn.

- Compound: "Cc1nc2ccccn2c1-c1csc(Nc2ccc3c(c2)OC(F)(F)O3)n1 [Compound 16, hydrochloride]"
  concentration at 6 h [ng/mL]: 0

====

Procedure text: Plasma pharmacokinetics and brain distribution after single IV, IP and oral administration
Format: in vivo
Particulars: male, C57BL/6, mouse, in vivo, ip, 10 mg/kg, Plasma concentration, individual animal
Structures can show the parent of a compound that is named as a salt.

- Molecule: "[2H]C1([2H])Oc2ccc(Nc3nc(-c4c(C)nc5ccccn45)cs3)cc2O1 [Compound 17, hydrochloride]"
  concentration at 12 h / ng/mL: 0
- Molecule: "Cc1nc2ccccn2c1-c1csc(Nc2ccc3c(c2)OC(F)(F)O3)n1 [Compound 16, hydrochloride]"
  concentration at 12 h / ng/mL: 0
- Molecule: "[2H]C([2H])([2H])Oc1ccc(Nc2nc(-c3c(C)nc4ccccn34)cs2)cc1 [Compound 15, hydrochloride]"
  concentration at 12 h / ng/mL: 0
